- assayed system: PI3K delta (Homo sapiens (Human), UniProt O00329)
- Sequence (O00329 whole entry): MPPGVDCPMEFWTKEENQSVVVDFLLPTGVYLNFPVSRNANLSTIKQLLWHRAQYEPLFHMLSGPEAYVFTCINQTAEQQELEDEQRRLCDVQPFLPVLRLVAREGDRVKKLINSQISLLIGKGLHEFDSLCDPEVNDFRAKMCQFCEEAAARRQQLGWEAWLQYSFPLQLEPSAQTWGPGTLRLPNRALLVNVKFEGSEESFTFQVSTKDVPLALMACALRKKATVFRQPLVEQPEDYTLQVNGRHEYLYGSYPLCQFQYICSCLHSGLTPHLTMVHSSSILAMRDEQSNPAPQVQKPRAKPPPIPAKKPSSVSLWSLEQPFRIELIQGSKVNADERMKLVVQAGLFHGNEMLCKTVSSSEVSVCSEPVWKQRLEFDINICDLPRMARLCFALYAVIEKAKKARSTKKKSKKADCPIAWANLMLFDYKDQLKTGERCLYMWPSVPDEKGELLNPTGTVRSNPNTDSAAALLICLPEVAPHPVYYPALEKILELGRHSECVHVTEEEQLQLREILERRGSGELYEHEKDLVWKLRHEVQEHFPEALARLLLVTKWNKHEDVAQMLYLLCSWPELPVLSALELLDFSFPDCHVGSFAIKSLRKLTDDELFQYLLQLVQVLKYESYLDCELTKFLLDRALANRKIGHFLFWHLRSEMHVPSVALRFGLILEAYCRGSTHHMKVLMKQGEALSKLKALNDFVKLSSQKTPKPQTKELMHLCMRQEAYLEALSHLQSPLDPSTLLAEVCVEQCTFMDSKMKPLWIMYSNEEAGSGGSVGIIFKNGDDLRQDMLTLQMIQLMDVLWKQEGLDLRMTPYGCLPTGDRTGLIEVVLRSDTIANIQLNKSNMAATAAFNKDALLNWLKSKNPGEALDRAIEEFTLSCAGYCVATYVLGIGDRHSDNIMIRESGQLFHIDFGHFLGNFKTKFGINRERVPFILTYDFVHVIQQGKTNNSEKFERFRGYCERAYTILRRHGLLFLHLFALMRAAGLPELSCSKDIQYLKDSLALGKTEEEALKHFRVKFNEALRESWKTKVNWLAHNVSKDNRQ
- Sequence (P27986 whole entry partner): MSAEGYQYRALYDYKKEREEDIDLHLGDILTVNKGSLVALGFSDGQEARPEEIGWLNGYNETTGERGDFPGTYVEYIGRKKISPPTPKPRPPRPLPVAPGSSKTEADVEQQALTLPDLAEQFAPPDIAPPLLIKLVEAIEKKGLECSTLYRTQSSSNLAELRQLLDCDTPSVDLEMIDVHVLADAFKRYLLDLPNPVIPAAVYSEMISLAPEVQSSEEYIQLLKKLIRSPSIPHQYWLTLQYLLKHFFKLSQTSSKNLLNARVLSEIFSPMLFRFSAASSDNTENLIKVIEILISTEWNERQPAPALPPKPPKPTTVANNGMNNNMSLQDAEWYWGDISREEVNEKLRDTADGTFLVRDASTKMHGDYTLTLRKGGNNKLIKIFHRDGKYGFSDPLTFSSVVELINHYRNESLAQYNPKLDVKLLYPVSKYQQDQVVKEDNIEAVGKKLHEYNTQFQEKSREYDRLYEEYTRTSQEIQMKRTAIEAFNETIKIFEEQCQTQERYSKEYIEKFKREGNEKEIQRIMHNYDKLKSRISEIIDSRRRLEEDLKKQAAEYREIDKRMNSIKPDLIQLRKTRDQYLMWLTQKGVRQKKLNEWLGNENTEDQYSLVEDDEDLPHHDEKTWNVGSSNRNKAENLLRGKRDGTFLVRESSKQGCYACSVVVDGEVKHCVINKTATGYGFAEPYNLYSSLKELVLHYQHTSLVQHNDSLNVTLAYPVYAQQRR
- assay comment: Luciferase-coupled chemiluminescence kinase assay (KinaseGlo, ATP consumption)
reported property: IC50

Worked set:
                                   molecule  reported_property          result
0  Cc1ccccc1-n1c(CNC(=O)c2nccnc2Cl)nc2cccc(C)c2c1=O               IC50  500 to 1500 nM
1  Cc1cccc2cc(CNC(=O)c3nccnc3N)c(N3CCCN(CC(=O)N(C)C)CC3)nc12               IC50  500 to 1500 nM
2  Cc1cccc2cc(C(C)Nc3ncnc4[nH]cnc34)c(-c3ccccc3Cl)nc12 (stereo not shown)               IC50         < 50 nM

Pending molecule:
Tell me the measured IC50 of "Cc1cccc2cc(CNC(=O)c3nccnc3N)c(N(C)CCN(C)C(=O)c3cccnc3)nc12" , please.
250 to 500 nM

----------
- assayed system: PI3K delta (Homo sapiens (Human))
- assay comment: Luciferase-coupled chemiluminescence kinase assay (KinaseGlo, ATP consumption)
pIC50: −log10 of the molar value.
reported property: pIC50

Below are worked cases with known answers.
>>> df
                              record_smiles        result
0  Cc1cccc2cc(CNC(=O)c3nccnc3N)c(NCCN(C)C)nc12  5.82 to 6.30
1  Cc1cccc2cc(CNC(=O)c3nccnc3N)c(N(C)CCN(C)C(=O)c3ccncc3)nc12  6.60 to 7.30

Query (compound): "CNCCOc1nc2c(C)cccc2cc1CNC(=O)c1nccnc1N" ; field requested: pIC50
5.82 to 6.30

----------
Here the recorded pIC50 is given for each entry.
- assayed system: PI3K delta (Homo sapiens (Human), UniProt O00329)
- assay comment: Luciferase-coupled chemiluminescence kinase assay (KinaseGlo, ATP consumption)
pIC50: −log10 of the molar value.

>>> print(df.to_string())
                                   molecule  reported_property        result
0   CNCCN(C)c1nc2c(C)cccc2cc1COc1ccc(OC)cc1              pIC50  5.82 to 6.30
1  Cc1cccc2cc(CNC(=O)c3nccnc3N)c(N3CCC(NC(=O)Cn4ccnn4)C3)nc12 (centres unmarked)              pIC50  5.82 to 6.30
2  CC(=O)N1CCN(c2nc3c(C)cccc3cc2Cn2cnc3c(N)ncnc32)CC1              pIC50  6.60 to 7.30
3  Cc1cccc2cc(CNC(=O)c3nccnc3N)c(N3CCCCC3)nc12              pIC50  5.82 to 6.30

Continue with the next molecule.
Return reported pIC50; argument: "CNCCN(C)c1nc2c(C)cccc2cc1CNC(=O)C1(C(=O)NC)CC1"
5.82 to 6.30

----------
Below, each entry is listed alongside its reported IC50.
- assayed system: PI3K delta (Homo sapiens (Human), UniProt O00329)
- assay comment: Luciferase-coupled chemiluminescence kinase assay (KinaseGlo, ATP consumption)

>>> df
                              record_smiles          result
0  Cc1cccc2cc(CNC(=O)c3nccnc3N)c(N(C)C3CCN(C)CC3)nc12    50 to 250 nM
1          Nc1nccnc1C(=O)NCc1nc2ccccc2cc1Br  500 to 1500 nM
2  Cc1cccc2cc(Cn3cnc4c(N)ncnc43)c(-c3ccccc3Cl)nc12    50 to 250 nM
3  Cc1ccccc1-n1c(CNC(=O)c2ncccc2N)nc2cccc(C)c2c1=O  500 to 1500 nM

Next, consider the following molecule.
Name the recorded IC50 for "Cc1cccc2cc(CNC(=O)c3nccnc3N)c(N(C)CCN(C)CC(=O)N3CCOCC3)nc12" .
50 to 250 nM
